target: Nucleic Acid; assay: Binding affinity against Tryptophanyl tRNA synthetase was determined
measurement_type: pKi
Answers are plain numbers, as −log10 of the molar value.

Q: Hello, please tell me recorded pKi for this one: `C[C@H]1c2c[nH]c3cccc(c23)S[C@H]1C(=O)O`
A: 7.70
